FYI, the data here is from patent US20250206828A1.

target: human adenosine A2A receptor (A2aR) (human, UniProt P29274 1-412); test: flow cytometry, HEK293-hA2aR cells, supernatant 1 ug/ml
Sequence (P29274 whole entry): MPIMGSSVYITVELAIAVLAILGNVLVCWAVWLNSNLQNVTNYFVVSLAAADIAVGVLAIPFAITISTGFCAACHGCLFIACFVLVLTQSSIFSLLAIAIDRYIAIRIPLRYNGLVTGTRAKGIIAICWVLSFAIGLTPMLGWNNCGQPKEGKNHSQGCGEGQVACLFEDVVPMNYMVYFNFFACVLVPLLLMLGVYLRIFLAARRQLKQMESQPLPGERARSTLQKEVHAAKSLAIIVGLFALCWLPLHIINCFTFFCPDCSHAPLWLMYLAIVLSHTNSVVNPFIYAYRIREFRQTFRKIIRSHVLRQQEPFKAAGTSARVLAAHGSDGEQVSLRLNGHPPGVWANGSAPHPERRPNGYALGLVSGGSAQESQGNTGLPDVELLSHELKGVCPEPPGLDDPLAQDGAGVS
Measured MFI by item

{"Binder": "Hu3F6-H2/Hu3F6-L2 (antibody, human IgG1, V domains shown) VH: EVQLVQSGAEVKKPGASVKVSCKTSGFAFTSYWMNWVRQAPGQGLEWMGRIDPSDSEAHYHHKFWGRVTMTVDTSTSTVYMELSSLRSEDTAVYYCLRSLYGKGDYWGHGTTVTVSS VL: DVVMTQSPLSLPVTLGQPASISCRSSQSLVHRNGNTYLEWYQQRPGQSPRRLIYKVSNRFSGVPDRFSGSGSGTDFTLKISRVEAEDVGVYYCYQGSHVPLTFGGGTKVEIK", "MFI [MFI]": 146}
{"Binder": "Hu1B5-H1/Hu1B5-L2 (antibody, human IgG1, V domains shown) VH: QVQLVQSGAEVKKPGASVKVSCKASGFTFTRFWMNWVRQAPGQGLEWMGRIDPYDSETQYNHKFWDRVTMTRDTSTSTVYMELSSLRSEDTAVYYCGRSLYGKGDYWGQGTTVTVSS VL: DVVMTQSPLSLPVTLGQPASISCRSSQSIVHSNGNTYLEWYQQRPGQSPRRLIYKVSNRFSGVPDRFSGSGSGTDFTLKISRVEAEDVGVYYCFQGSHVPLTFGGGTKVEIK", "MFI [MFI]": 62}
{"Binder": "Hu3F8-H5/Hu3F8-L1 (antibody, human IgG1, V domains shown) VH: EVQLVQSGAEVKKPGASVKVSCKASGFTFTRYWMNWVRQAPGQGLEWIGRIDPSDSETHYNAKFWGRATLTVDKSTSTVYMELSSLRSEDTAVYYCLRSLYGKGDYWGQGTTVTVSS VL: DVVMTQSPLSLPVTLGQPASISCRSSQSIVHSNGNTYLEWFQQRPGQSPRRLIYKVSNRFSGVPDRFSGSGSGTDFTLKISRVEAEDVGVYYCYQGSHVPLTFGGGTKVEIK", "MFI [MFI]": 58}
{"Binder": "Hu1B5-H4/Hu1B5-L1 (antibody, human IgG1, V domains shown) VH: EVQLVQSGAEVKKPGASVKVSCKTSGFTFTRFWMNWVRQAPGQGLEWIGRIDPYDSETQYNHKFWDRATLTVDKSSSTVYMELSSLRSEDTAVYYCGRSLYGKGDYWGQGTTVTVSS VL: DVVMTQSPLSLPVTLGQPASISCRSSQSIVHSNGNTYLEWFQQRPGQSPRRLIYKVSNRFSGVPDRFSGSGSGTDFTLKISRVEAEDVGVYYCFQGSHVPLTFGGGTKVEIK", "MFI [MFI]": 182}
{"Binder": "Hu3F8-H3/Hu3F8-L2 (antibody, human IgG1, V domains shown) VH: EVQLVQSGAEVKKPGASVKVSCKASGFTFTRYWMNWVRQAPGQGLEWIGRIDPSDSETHYNHKFWGRATLTVDTSTSTVYMELSSLRSEDTAVYYCLRSLYGKGDYWGQGTTVTVSS VL: DVVMTQSPLSLPVTLGQPASISCRSSQSIVHSNGNTYLEWYQQRPGQSPRRLIYKVSNRFSGVPDRFSGSGSGTDFTLKISRVEAEDVGVYYCYQGSHVPLTFGGGTKVEIK", "MFI [MFI]": 93}
{"Binder": "Hu3F8-H5/Hu3F8-L2 (antibody, human IgG1, V domains shown) VH: EVQLVQSGAEVKKPGASVKVSCKASGFTFTRYWMNWVRQAPGQGLEWIGRIDPSDSETHYNAKFWGRATLTVDKSTSTVYMELSSLRSEDTAVYYCLRSLYGKGDYWGQGTTVTVSS VL: DVVMTQSPLSLPVTLGQPASISCRSSQSIVHSNGNTYLEWYQQRPGQSPRRLIYKVSNRFSGVPDRFSGSGSGTDFTLKISRVEAEDVGVYYCYQGSHVPLTFGGGTKVEIK", "MFI [MFI]": 147}
{"Binder": "Hu1B5-H5/Hu1B5-L1 (antibody, human IgG1, V domains shown) VH: EVQLVQSGAEVKKPGASVKVSCKTSGFTFTRFWMNWVRQAPGQGLEWIGRIDPYDSETQYAHKFWDRATLTVDKSSSTVYMELSSLRSEDTAVYYCGRSLYGKGDYWGQGTTVTVSS VL: DVVMTQSPLSLPVTLGQPASISCRSSQSIVHSNGNTYLEWFQQRPGQSPRRLIYKVSNRFSGVPDRFSGSGSGTDFTLKISRVEAEDVGVYYCFQGSHVPLTFGGGTKVEIK", "MFI [MFI]": 82}
{"Binder": "Hu3F8-H3/Hu3F8-L1 (antibody, human IgG1, V domains shown) VH: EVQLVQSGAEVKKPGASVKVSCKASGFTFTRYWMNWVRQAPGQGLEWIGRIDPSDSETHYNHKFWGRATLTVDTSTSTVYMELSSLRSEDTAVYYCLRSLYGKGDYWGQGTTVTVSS VL: DVVMTQSPLSLPVTLGQPASISCRSSQSIVHSNGNTYLEWFQQRPGQSPRRLIYKVSNRFSGVPDRFSGSGSGTDFTLKISRVEAEDVGVYYCYQGSHVPLTFGGGTKVEIK", "MFI [MFI]": 64}
{"Binder": "Hu1B5-H2/Hu1B5-L1 (antibody, human IgG1, V domains shown) VH: EVQLVQSGAEVKKPGASVKVSCKTSGFTFTRFWMNWVRQAPGQGLEWMGRIDPYDSETQYNHKFWDRVTMTVDTSTSTVYMELSSLRSEDTAVYYCGRSLYGKGDYWGQGTTVTVSS VL: DVVMTQSPLSLPVTLGQPASISCRSSQSIVHSNGNTYLEWFQQRPGQSPRRLIYKVSNRFSGVPDRFSGSGSGTDFTLKISRVEAEDVGVYYCFQGSHVPLTFGGGTKVEIK", "MFI [MFI]": 165}
